molecular target: human PD-L1 on the cell surface (human, UniProt Q9NZQ7 19-290); test: cell-based or functional assay
test_readout: PDL1/PD-1 Max. inhibition (rel. to avelumab) [%] (%)
Your answer is read as %, so omit the unit and give the number.

Below, each entry is followed by its recorded PDL1/PD-1 Max. inhibition (rel. to avelumab) [%] result.
>>> value_reported("PRO2230 (scFv, anti-PDL1 scFv; also called 37-20-B03-sc09.1) scFv: DIQMTQSPASLSASVGDRVTITCQASQSIGTYLAWYQQKPGKPPKLLIYRAFILASGVPSRFSGSGSGTDFTLTISSLQPEDFATYYCQSNFYSDSTTIGPNAFGTGTKVTVLGGGGGSGGGGSGGGGSGGGGSEVQLVESGGGLVQPGGSLRLSCAASGFSFNSDYWIYWVRQAPGKGLEWIASIYGGSSGNTQYASWAQGRFTISRDNSKNTVYLQMNSLRAEDTAVYFCARGYVDYGGATDLWGQGTLVTVSS")
91.8
>>> value_reported("PRO1347 (scFv, anti-PDL1 scFv; also called 37-20-B03-sc09) scFv: DIQMTQSPASLSASVGDRVTITCQASQSIGTYLAWYQQKPGKPPKLLIYRAFILASGVPSRFSGSGSGTDFTLTISSLQPEDFATYYCQSNFYSDSTTIGPNAFGTGTKVTVLGGGGGSGGGGSGGGGSGGGGSEVQLVESGGGLVQPGGSLRLSCAASGFSFNSDYWIYWVRQAPGKGLEWIACIYGGSSGNTQYASWAQGRFTISRDNSKNTVYLQMNSLRAEDTAVYFCARGYVDYGGATDLWGQGTLVTVSS")
100
>>> value_reported("PRO4245 (scFv, anti-PDL1 scFv) scFv: DIQMTQSPSSLSASVGDRVTITCQASQSIGTYLAWYQQKPGKPPKLLIYRGGILASGVPSRFSGSGSGTDFTLTISSLQPEDFATYYCQSNFYSDSTTIGPNAFGTGTKVTVLGGGGGSGGGGSGGGGSGGGGSQQLVESGGGLVQPGGSLRLSCAASGFSFNSDYWIYWVRQAPGKGLEWIASIYGGSSGNTQYASWAQGRFTISKDNSKNTVYLQMNSLRAEDSAVYFCARGYVDYGGATDLWGQGTLVKVSS")
106
>>> value_reported("PRO3891 (scFv, anti-PDL1 scFv) scFv: DIQMTQSPSSLSASVGDRVTITCQASQSINDYLAWYQQKPGKAPKLLIYKGGTLASGVPSRFSGSGSGTDFTLTISSLQPEDFATYYCQQGYIITDIDNVFGTGTKVTVLGGGGGSGGGGSGGGGSGGGGSQVQLQESGPGLVKPSETLSLTCKASGFSFSSGYDMCWVRQPPGKGLEWIACVVAGSVDITYYASWAKGRVTISKDSSKNQVSLKLSSVTAADSAVYYCARKDAYSDAFNLWGQGTLVKVSS")
94.6

Below: the item to evaluate.
response.value for PRO1392 (scFv, anti-PDL1 scFv (VL-linker-VH); also called 33-03-G02-sc18) scFv: DIQMTQSPSSLSASVGDRVTITCQASQSINDYLAWYQQKPGKAPKLLIYKASTLASGVPSRFSGSGSGTDFTLTISSLQPEDFATYYCQQGYIITDIDNVFGTGTKVTVLGGGGGSGGGGSGGGGSGGGGSQVQLQESGPGLVKPSETLSLTCKASGFSFSSGYDMCWVRQPPGKGLEWIACVVAGSVDITYYASWAKGRVTISKDSSKNQVSLKLSSVTAADTAVYYCARKDAYSDAFNLWGQGTLVTVSS (field: PDL1/PD-1 Max. inhibition (rel. to avelumab) [%]) = 104
